# Tested on: CEM cells HIV-1 protection, formazan growth assay
# experiment.notes: NCI AIDS Antiviral Assay;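 active = compounds giving half or more protection of infected cells from virus-caused growth loss, again on retest; inactive = the rest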
# Method: The ability of compounds to protect human CEM cells from HIV-1 infection is measured as a screen for new compounds capable of inhibiting the HIV virus. Five concentrations of drug were tested on uninfected and infected cells and cell growth was measured using a soluble formazan assay. […] Compounds that provided at least 50% protection were retested. Compounds that provided at least 50% protection on retest were listed as moderately active. […]
Where a SMILES comes first, the peptide text is derived from it. [ ]: non-standard residue; d: D form. The star is where a group is joined. Cbz = O=C(OCc1ccccc1)*; Boc = CC(C)(C)OC(=O)*; Aib = CC(C)(N)C(=O)O; OBn = c1ccc(CO*)cc1; OtBu = CC(C)(C)O*; βAla = NCCC(=O)O
Hello, when you answer, please use one of the following outcomes: active, inactive

Reference set, count: 4
{"columns": ["compound", "system", "group.label"],
 "data": [
  ["CC1CN(c2cc3c(cc2F)c(=O)c(C(=O)O)cn3-c2ccc(F)cn2)CC(C)N1 (stereo not drawn)", "CEM cells HIV-1 protection, formazan growth assay", "inactive"],
  ["CC(C)(C)OC(=O)CC(NC(=O)OC(C)(C)C)C(=O)NC(CCCCNC(=O)OCc1ccccc1)C(=O)NC(C)(C)C(=O)NCCC(=O)OCc1ccccc1 (stereo not drawn) (Boc-D(OtBu)K(Cbz)[Aib][βAla]-OBn; configuration not given here)", "CEM cells HIV-1 protection, formazan growth assay", "inactive"],
  ["O=C(/C=C/c1ccc([N+](=O)[O-])cc1)c1ccccc1", "CEM cells HIV-1 protection, formazan growth assay", "inactive"],
  ["O=C1C[C@]2(CC(O)CO)CC(O1)[C@@H](I)CC21OCCO1 (stereo partly drawn)", "CEM cells HIV-1 protection, formazan growth assay", "inactive"]
]}

Proceed to the following item.
Input line: Which outcome was entered for the compound O=c1[nH][nH]c2c1SCc1ccccc1-2 in this test?
Output line: inactive

These measurements were taken from PubChem BioAssay AID179.
